Hey, just so you know, these numbers are from patent US4350697A.

studyTarget: neuroleptic receptors (frontal cortex membranes, major serotonergic component)
experimentDescription: [3H] spiroperidol receptor binding displacement on frontal cortex membranes (test A)
recordedConditions: [3H] spiroperidol 0.19 nM, rat frontal cortex membranes, 37° C., 10 minutes
readoutLabel: pIC50
Scale for pIC50: -log10 of concentration given in mol/L; no unit attached.

Documented pIC50 of c1ccc(C2=C3CCNCC3Sc3ccccc32)cc1 (stereo not shown) [Example 17] : 6.20

* * *

studyTarget: α-noradrenergic receptor
experimentDescription: [3H] WB-4101 receptor binding displacement, rat cortical membranes (test C)
recordedConditions: [3H] WB-4101 0.25 nM, 25° C., 15 minutes
Counter-ions that a name gives are not always drawn.
Below, each of the molecules is paired with its reported pIC50 value.
pIC50 here is simply -log10 of the concentration when that concentration is written in mol/L.

Examples from the recorded data:
[
  {
    "molecule": "Cc1ccc(C2=C3CCN(C)CC3Sc3ccccc32)c(C)c1 (centres unmarked) [Example 19, hydrochloride]",
    "studyTarget": "α-noradrenergic receptor",
    "numericValue": 7.64
  },
  {
    "molecule": "Cc1cccc(C2=C3CCN(C)CC3Sc3ccccc32)c1 (centres unmarked)",
    "studyTarget": "α-noradrenergic receptor",
    "numericValue": 6.09
  },
  {
    "molecule": "CCCOc1ccc(C2=C3CCN(C)CC3Sc3ccccc32)cc1 (centres unmarked)",
    "studyTarget": "α-noradrenergic receptor",
    "numericValue": 5.17
  },
  {
    "molecule": "CN1CCC2=C(c3ccccc3)c3cccc(Cl)c3SC2C1 (centres unmarked)",
    "studyTarget": "α-noradrenergic receptor",
    "numericValue": 5.98
  },
  {
    "molecule": "CN1CCC2=C(c3ccccc3)c3ccc(Cl)cc3SC2C1 (centres unmarked)",
    "studyTarget": "α-noradrenergic receptor",
    "numericValue": 5.52
  },
  {
    "molecule": "Cc1cccc2c1SC1CN(C)CCC1=C2c1ccccc1 (centres unmarked)",
    "studyTarget": "α-noradrenergic receptor",
    "numericValue": 6.10
  }
]

Form field pIC50, entry Cc1ccc2c(c1)SC1CN(C)CCC1=C2c1ccccc1 (centres unmarked) : 5.84

Briefly, pIC50 measured for c1ccc(C2=C3CCNCC3Sc3ccccc32)cc1 (centres unmarked) : 6.17

For reference, reported pIC50 for CN1CCC2=C(c3ccc(N(C)C)cc3)c3ccccc3SC2C1 (centres unmarked) stands at 7.00

Summary for this molecule, Cc1ccc(C2=C3CCN(C)CC3Sc3ccccc32)cc1C (centres unmarked) : pIC50 is 6.30

Kindly note the recorded pIC50 for CN1CCC2=C(c3ccc(Cl)c(Cl)c3)c3ccccc3SC2C1 (centres unmarked) , which is 6.20

get_value(item= Cc1ccc(C2=C3CCN(C)CC3Sc3ccccc32)cc1 (centres unmarked) , readout=pIC50) returns 7.54

Value of pIC50 reported for the molecule CCc1ccc(C2=C3CCN(C)CC3Sc3ccccc32)cc1 (centres unmarked) is 7.23

Quick note, pIC50 for Cc1ccccc1C1=C2CCN(C)CC2Sc2ccccc21 (centres unmarked) landed at 6.09

* * *

studyTarget: Muscarinic chloinergic receptor
recordedConditions: [3H] QNB 0.3 nM, rat forebrain membranes, 25° C., 1 hour; read-out: IC50 test D
Recorded IC50 determines the label; the label ranges are low: < 10 µM; moderate: ≥ 10 µM and < 40 µM; high: ≥ 40 µM

Illustrative cases are given below, each with its answer.
[
  {
    "compound": "Cc1ccc2c(c1)SC1CN(C)CCC1=C2c1ccccc1 (stereo not drawn)",
    "groupLabel": "moderate"
  },
  {
    "compound": "CN1CCC2=C(c3ccc(Cl)cc3)c3ccccc3SC2C1 (stereo not drawn)",
    "groupLabel": "high"
  },
  {
    "compound": "CN1CCC2=C(c3ccc(Cl)c(Cl)c3)c3ccccc3SC2C1 (stereo not drawn)",
    "groupLabel": "high"
  }
]

Ask: Would you mind sorting Cc1cccc(C2=C3CCN(C)CC3Sc3ccccc32)c1 (stereo not drawn) into the appropriate category?
Result: low

Ask: Place this compound in its band: Cc1ccc(C2=C3CCN(C)CC3Sc3ccccc32)cc1C (stereo not drawn)
Result: high

* * *

studyTarget: α-noradrenergic receptor
experimentDescription: [3H] WB-4101 receptor binding displacement, rat cortical membranes (test C)
recordedConditions: [3H] WB-4101 0.25 nM, 25° C., 15 minutes
A collection of molecules and their measured IC50
Use nM as the unit, but write only the number.

// known answers, use as guide
[
  {
    "molecule": "CN1CCC2=C(c3ccc(N)cc3)c3ccccc3SC2C1.Cl (stereo not shown) [Example 15, hydrochloride]",
    "IC50 [nM]": 372
  },
  {
    "molecule": "CN1CCC2=C(c3ccccc3)c3ccccc3SC2C1.Cl (stereo not shown) [Example 1, hydrochloride]",
    "IC50 [nM]": 394
  },
  {
    "molecule": "CN1CCC2=C(c3cccc(Cl)c3)c3ccccc3SC2C1 (stereo not shown)",
    "IC50 [nM]": 1950
  },
  {
    "molecule": "CCN1CCC2=C(c3ccccc3)c3ccccc3SC2C1 (stereo not shown)",
    "IC50 [nM]": 502
  }
]

Now let's try a different one.
Short answer for Cc1ccc2c(c1)C(c1ccccc1)=C1CCN(C)CC1S2 (stereo not shown) : IC50 was 12500

* * *

studyTarget: neuroleptic receptors (frontal cortex membranes, major serotonergic component)
experimentDescription: [3H] spiroperidol receptor binding displacement on frontal cortex membranes (test A)
recordedConditions: [3H] spiroperidol 0.19 nM, rat frontal cortex membranes, 37° C., 10 minutes
Strictly below 50 nM in IC50: T. Otherwise: F.

[
  {
    "compound": "Cc1ccc(C2=C3CCN(C)CC3Sc3ccccc32)cc1C (centres unmarked) [Example 14]",
    "groupLabel": "F"
  },
  {
    "compound": "Cc1ccc(C2=C3CCN(C)CC3Sc3ccccc32)cc1 (centres unmarked) [Example 3]",
    "groupLabel": "T"
  },
  {
    "compound": "CN1CCC2=C(c3ccccc3)c3cccc(Cl)c3SC2C1 (centres unmarked) [Example 20]",
    "groupLabel": "F"
  }
]

Ask: Consider CCCOc1ccc(C2=C3CCN(C)CC3Sc3ccccc32)cc1 (centres unmarked) [Example 11] . Does its IC50 lie strictly below 50 nM?
Result: F

* * *

studyTarget: neuroleptic receptors (frontal cortex membranes, major serotonergic component)
experimentDescription: [3H] spiroperidol receptor binding displacement on frontal cortex membranes (test A)
recordedConditions: [3H] spiroperidol 0.19 nM, rat frontal cortex membranes, 37° C., 10 minutes
Labelling: IC50 reported below 0.3 µM becomes Y; at or above becomes N.

Field: example entries. Status: answers known.
[
  {
    "compound": "Cc1ccc2c(c1)C(c1ccccc1)=C1CCN(C)CC1S2 (stereo not drawn) [Example 22]",
    "groupLabel": "N"
  },
  {
    "compound": "CN1CCC2=C(c3ccc(Cl)c(Cl)c3)c3ccccc3SC2C1 (stereo not drawn) [Example 8]",
    "groupLabel": "N"
  },
  {
    "compound": "CN1CCC2=C(c3ccccc3)c3ccc(Cl)cc3SC2C1 (stereo not drawn) [Example 21]",
    "groupLabel": "N"
  },
  {
    "compound": "CN1CCC2=C(c3ccc(Cl)cc3)c3ccccc3SC2C1 (stereo not drawn) [Example 2]",
    "groupLabel": "N"
  }
]

Ask: Dear reviewer, please state whether CN1CCC2=C(c3ccc(N)cc3)c3ccccc3SC2C1.Cl (stereo not drawn) [Example 15, hydrochloride] has IC50 strictly beneath 0.3 µM.
Result: Y

Ask: Regarding CCN1CCC2=C(c3ccccc3)c3ccccc3SC2C1 (stereo not drawn) [Example 12] , kindly confirm whether its IC50 is beneath 0.3 µM.
Result: N

Ask: Does this compound meet the criterion IC50 < 0.3 µM? CN1CCC2=C(c3cccc(Cl)c3)c3ccccc3SC2C1 (stereo not drawn) [Example 5]
Result: N

Ask: Strictly below 0.3 µM: is that where IC50 of COc1ccc(C2=C3CCN(C)CC3Sc3ccccc32)cc1 (stereo not drawn) [Example 4] sits?
Result: Y

Ask: Identify whether the compound CN1CCC2=C(c3ccccc3)c3cc(Cl)ccc3SC2C1 (stereo not drawn) [Example 13] records IC50 below 0.3 µM.
Result: N

* * *

studyTarget: Muscarinic chloinergic receptor
recordedConditions: [3H] QNB 0.3 nM, rat forebrain membranes, 25° C., 1 hour; read-out: IC50 test D
Structures can show the parent of a compound that is named as a salt.
readoutLabel: pIC50
Convention used: pIC50 is expressed as -log10 of the molar concentration.

Examples with answers:
[
  {
    "compound": "Cc1ccc(C2=C3CCN(C)CC3Sc3ccccc32)c(C)c1 (stereo not shown) [Example 19, hydrochloride]",
    "numericValue": 4.37
  },
  {
    "compound": "CN1CCC2=C(c3ccccc3)c3ccccc3SC2C1.Cl (stereo not shown) [Example 1, hydrochloride]",
    "numericValue": 4.85
  },
  {
    "compound": "CN1CCC2=C(c3ccccc3)c3cccc(Cl)c3SC2C1 (stereo not shown)",
    "numericValue": 4.17
  },
  {
    "compound": "Cc1cccc(C)c1C1=C2CCN(C)CC2Sc2ccccc21 (stereo not shown)",
    "numericValue": 5.36
  },
  {
    "compound": "CN1CCC2=C(c3ccc(N)cc3)c3ccccc3SC2C1.Cl (stereo not shown) [Example 15, hydrochloride]",
    "numericValue": 5.10
  }
]

get_value(item= CN1CCC2=C(c3ccccc3)c3cc(Cl)ccc3SC2C1 (stereo not shown) , readout=pIC50) returns 4.32

Recorded pIC50 (compound Cc1cccc2c1SC1CN(C)CCC1=C2c1ccccc1 (stereo not shown) ): 4.41

get_value(item= c1ccc(C2=C3CCNCC3Sc3ccccc32)cc1 (stereo not shown) , readout=pIC50) returns 4.71

pIC50 for CCN1CCC2=C(c3ccccc3)c3ccccc3SC2C1 (stereo not shown) is 4.72

For record Cc1ccccc1C1=C2CCN(C)CC2Sc2ccccc21 (stereo not shown) the listed pIC50 is 5.09

Looking up COc1ccc(C2=C3CCN(C)CC3Sc3ccccc32)cc1 (stereo not shown) , I found its pIC50 recorded as 4.21

compound Cc1cc(C)c(C2=C3CCN(C)CC3Sc3ccccc32)c(C)c1 (stereo not shown) , pIC50 observed: 5.93

GET /value?item= CN1CCC2=C(c3ccccc3)c3ccc(Cl)cc3SC2C1 (stereo not shown) &field=pIC50 returns 4.23

Looking up CN1CCC2=C(c3cccc(Cl)c3)c3ccccc3SC2C1 (stereo not shown) , I found its pIC50 recorded as 4.79

Measured pIC50 of Cc1ccc(C2=C3CCN(C)CC3Sc3ccccc32)cc1 (stereo not shown) : 4.13
